test system: Escherichia coli DH10B; assay: Resting-cell viability (CFU) with 0.5 mM EDTA; assay type: cell-based; design: key: (+) CFU, decay ∼1 log-unit; (−) ≤ 0.3 log-units; conditions: E. coli DH10B, 100 µM compound, 3 h incubation
Structures can show the parent of a compound that is named as a salt.
measurement_label: CFU's decay in the presence of 0.5 mM EDTA, Ec (data in parenthesis)

>  <compound>
CCCCCCCCCCCCCCCCCCNC(=O)[C@H](CCC(=O)O)NC(=O)[C@H]1CCCN1C(=O)[C@@H](N)CC(N)=O [DICAM 2, Asn- Pro -Glu-NH-C18H37 ·HCl]

>  <recorded_measurement>
(+)

$$$$
>  <compound>
CCCCCCCCCCCCCCCCCCNC(=O)[C@H](CCC(=O)O)NC(=O)[C@H]1CCCN1C(=O)[C@H](C)N [DICAM 4, Ala- Pro -Glu-NH-C18H37 ·HCl]

>  <recorded_measurement>
(+)

$$$$

* * *

Reported Retention time is given for each of the following molecules.
experiment: RP-HPLC retention time used to determine hydrophobicity; format: physicochemical; settings: analytical RP-HPLC, C18 Sunfire column (4.6 mm × 150 mm, 3.5 μm); A = 0.05% TFA in water, B = acetonitrile; 10% to 100% B in 20 min then isocratic 100% B 10 min; 217 and 254 nm; used as measure of hydrophobicity
Counter-ions that a name gives are not always drawn.
Please reply with the bare figure in min and do not write the unit itself.

>  <molecule>
CCCCCCCCCCCCCCCCCCNC(=O)[C@H](CCC(=O)O)NC(=O)[C@H]1CCCN1C(=O)[C@@H](N)CC(N)=O [DICAM 2, Asn- Pro -Glu-NH-C18H37 ·HCl]

>  <Retention time (min)>
12.14

$$$$

What does the data say about its Retention time? Entry: CCCCCCCCCCCCCCCCCCNC(=O)[C@H](CCC(=O)O)NC(=O)[C@H]1CCCN1C(=O)[C@@H](N)CCCN [DICAM 22, Orn- Pro -Glu-NH-C18H37 · HCl]
16.91

# lookup: Retention time of CCCCCCCCCCCCCCCCCCNC(=O)[C@H](CCC(=O)O)NC(=O)[C@H]1CCCN1C(=O)[C@H](C)NC(=O)OCc1ccccc1
21.42

Please report the recorded Retention time for CCCCCCCCCCCCCCCCCCNC(=O)[C@H](C)NC(=O)[C@H]1CCCN1C(=O)[C@H](C)N [DICAM 14, Ala- Pro -Ala-NH-C18H37 · HCl] .
19.50

Can you look up the measured Retention time of CCCCCCCCCCCCCCCCCCNC(=O)[C@H](CCC(=O)O)NC(=O)[C@H]1CCCN1C(=O)[C@H](CC(N)=O)NC(=O)OCc1ccccc1 for me?
21.41

May I ask what Retention time has been recorded for CCCCCCCCCCCCCCCCCCNC(=O)[C@H](CCC(=O)O)NC(=O)[C@H]1CCCN1C(=O)[C@H](CCC(=O)O)NC(=O)OCc1ccccc1 ?
21.22

Sample CCCCCCCCCCCCCCCCNC(=O)[C@H](CCC(=O)O)NC(=O)[C@H]1CCCN1C(=O)[C@H](CC(N)=O)NC(=O)OCc1ccccc1 — what was its Retention time?
18.23

Item CCCCCCCCCCCCCCCCCCNC(=O)[C@H](CCC(=O)O)NC(=O)[C@H]1CCCN1C(=O)[C@@H](N)CCC(=O)O [DICAM 20, Glu- Pro -Glu-NH-C18H37 · HCl] has what recorded Retention time?
18.71

Record request: Retention time value, item CCCCCCCCCCCCCCCCCCNC(=O)[C@H](CCC(=O)O)NC(=O)[C@H]1CCCN1C(=O)[C@H](CCCN)NC(=O)OCc1ccccc1
19.70

Record request: Retention time value, item CCCCCCCCCCCCCCCCCCNC(=O)[C@H](CCC(=O)O)NC(=O)[C@H]1CCCN1C(=O)[C@H](C)NC(C)=O
21.23

Give the measured Retention time of CCCCCCCCCCCCCCCCCCNC(=O)[C@H](CCC(=O)O)NC(=O)[C@H]1CCCN1C(=O)[C@H](C)N [DICAM 4, Ala- Pro -Glu-NH-C18H37 ·HCl] .
19.24
